// provenance: paper PMC10541425

test: Cell viability of THP1-XBlue-CD14 reporter cells; conditions: human, 20 µM peptide, without LPS, replicate 4
reported-metric: viability at 20 h, 20 µM (%)

{"columns": ["molecule", "reported-metric", "numeric-readout"],
 "data": [
  ["CC[C@H](C)[C@H](NC(=O)[C@H](Cc1c[nH]c2ccccc12)NC(=O)[C@H](CCCCN)NC(=O)[C@H](CCCCN)NC(=O)[C@H](CC(C)C)NC(=O)[C@H](CCCNC(=N)N)NC(=O)[C@H](Cc1ccccc1)NC(=O)[C@@H](NC(=O)[C@@H](N)Cc1c[nH]cn1)C(C)C)C(=O)N[C@@]1(C)CCCC=CCCC[C@@](C)(C(=O)N[C@@H](CCC(N)=O)C(=O)N[C@@H](Cc2ccccc2)C(=O)NCC(=O)N[C@@H](CCC(=O)O)C(=O)O)NC(=O)[C@H]([C@@H](C)CC)NC(=O)[C@H](C(C)C)NC(=O)[C@H](CCCCN)NC1=O [sHVF18]", "viability at 20 h, 20 µM", 90.5]
]}

* * *

assay: Cell viability of THP1-XBlue-CD14 reporter cells; conditions: human, 2 µM peptide, with LPS, replicate 1
reported-metric: viability at 20 h, 2 µM (%)

{"columns": ["molecule", "numeric-readout"],
 "data": [
  ["CC[C@H](C)[C@H](NC(=O)[C@H](Cc1c[nH]c2ccccc12)NC(=O)[C@H](CCCCN)NC(=O)[C@H](CCCCN)NC(=O)[C@H](CC(C)C)NC(=O)[C@H](CCCNC(=N)N)NC(=O)[C@H](Cc1ccccc1)NC(=O)[C@@H](NC(=O)[C@@H](N)Cc1c[nH]cn1)C(C)C)C(=O)N[C@@]1(C)CCCC=CCCC[C@@](C)(C(=O)N[C@@H](CCC(N)=O)C(=O)N[C@@H](Cc2ccccc2)C(=O)NCC(=O)N[C@@H](CCC(=O)O)C(=O)O)NC(=O)[C@H]([C@@H](C)CC)NC(=O)[C@H](C(C)C)NC(=O)[C@H](CCCCN)NC1=O [sHVF18]", 102]
]}

* * *

assay: Cell viability of THP1-XBlue-CD14 reporter cells; conditions: human, 20 µM peptide, without LPS, replicate 2

{"columns": ["compound", "viability at 20 h, 20 µM / %"],
 "data": [
  ["CC[C@H](C)[C@H](NC(=O)[C@H](Cc1c[nH]c2ccccc12)NC(=O)[C@H](CCCCN)NC(=O)[C@H](CCCCN)NC(=O)[C@H](CC(C)C)NC(=O)[C@H](CCCNC(=N)N)NC(=O)[C@H](Cc1ccccc1)NC(=O)[C@@H](NC(=O)[C@@H](N)Cc1c[nH]cn1)C(C)C)C(=O)N[C@@]1(C)CCCC=CCCC[C@@](C)(C(=O)N[C@@H](CCC(N)=O)C(=O)N[C@@H](Cc2ccccc2)C(=O)NCC(=O)N[C@@H](CCC(=O)O)C(=O)O)NC(=O)[C@H]([C@@H](C)CC)NC(=O)[C@H](C(C)C)NC(=O)[C@H](CCCCN)NC1=O [sHVF18]", 69.7]
]}

* * *

test: Cell viability of THP1-XBlue-CD14 reporter cells; details: human, 5 µM peptide, with LPS, replicate 2

{"columns": ["structure-smiles-string", "result-unit", "viability at 20 h, 5 µM"],
 "data": [
  ["CC[C@H](C)[C@H](NC(=O)[C@H](Cc1c[nH]c2ccccc12)NC(=O)[C@H](CCCCN)NC(=O)[C@H](CCCCN)NC(=O)[C@H](CC(C)C)NC(=O)[C@H](CCCNC(=N)N)NC(=O)[C@H](Cc1ccccc1)NC(=O)[C@@H](NC(=O)[C@@H](N)Cc1c[nH]cn1)C(C)C)C(=O)N[C@@]1(C)CCCC=CCCC[C@@](C)(C(=O)N[C@@H](CCC(N)=O)C(=O)N[C@@H](Cc2ccccc2)C(=O)NCC(=O)N[C@@H](CCC(=O)O)C(=O)O)NC(=O)[C@H]([C@@H](C)CC)NC(=O)[C@H](C(C)C)NC(=O)[C@H](CCCCN)NC1=O", "%", 93.7]
]}

* * *

test: Cell viability of THP1-XBlue-CD14 reporter cells; details: human, 5 µM peptide, with LPS, replicate 1

{"columns": ["structure-smiles-string", "viability at 20 h, 5 µM [%]"],
 "data": [
  ["CC[C@H](C)[C@H](NC(=O)[C@H](Cc1c[nH]c2ccccc12)NC(=O)[C@H](CCCCN)NC(=O)[C@H](CCCCN)NC(=O)[C@H](CC(C)C)NC(=O)[C@H](CCCNC(=N)N)NC(=O)[C@H](Cc1ccccc1)NC(=O)[C@@H](NC(=O)[C@@H](N)Cc1c[nH]cn1)C(C)C)C(=O)N[C@@]1(C)CCCC=CCCC[C@@](C)(C(=O)N[C@@H](CCC(N)=O)C(=O)N[C@@H](Cc2ccccc2)C(=O)NCC(=O)N[C@@H](CCC(=O)O)C(=O)O)NC(=O)[C@H]([C@@H](C)CC)NC(=O)[C@H](C(C)C)NC(=O)[C@H](CCCCN)NC1=O", 106]
]}

* * *

assay: Cell viability of THP1-XBlue-CD14 reporter cells; conditions: human, 20 µM peptide, with LPS, replicate 2
reported-metric: viability at 20 h, 20 µM (%)

{"columns": ["structure-smiles-string", "reported-metric", "numeric-readout"],
 "data": [
  ["CC[C@H](C)[C@H](NC(=O)[C@H](Cc1c[nH]c2ccccc12)NC(=O)[C@H](CCCCN)NC(=O)[C@H](CCCCN)NC(=O)[C@H](CC(C)C)NC(=O)[C@H](CCCNC(=N)N)NC(=O)[C@H](Cc1ccccc1)NC(=O)[C@@H](NC(=O)[C@@H](N)Cc1c[nH]cn1)C(C)C)C(=O)N[C@@]1(C)CCCC=CCCC[C@@](C)(C(=O)N[C@@H](CCC(N)=O)C(=O)N[C@@H](Cc2ccccc2)C(=O)NCC(=O)N[C@@H](CCC(=O)O)C(=O)O)NC(=O)[C@H]([C@@H](C)CC)NC(=O)[C@H](C(C)C)NC(=O)[C@H](CCCCN)NC1=O", "viability at 20 h, 20 µM", 70.9]
]}

* * *

assay: Cell viability of THP1-XBlue-CD14 reporter cells; conditions: human, 10 µM peptide, with LPS, replicate 3

{"columns": ["compound", "viability at 20 h, 10 µM (%)"],
 "data": [
  ["CC[C@H](C)[C@H](NC(=O)[C@H](Cc1c[nH]c2ccccc12)NC(=O)[C@H](CCCCN)NC(=O)[C@H](CCCCN)NC(=O)[C@H](CC(C)C)NC(=O)[C@H](CCCNC(=N)N)NC(=O)[C@H](Cc1ccccc1)NC(=O)[C@@H](NC(=O)[C@@H](N)Cc1c[nH]cn1)C(C)C)C(=O)N[C@@]1(C)CCCC=CCCC[C@@](C)(C(=O)N[C@@H](CCC(N)=O)C(=O)N[C@@H](Cc2ccccc2)C(=O)NCC(=O)N[C@@H](CCC(=O)O)C(=O)O)NC(=O)[C@H]([C@@H](C)CC)NC(=O)[C@H](C(C)C)NC(=O)[C@H](CCCCN)NC1=O [sHVF18]", 82.4]
]}

* * *

assay: Cell viability of THP1-XBlue-CD14 reporter cells; conditions: human, 1 µM peptide, with LPS, replicate 2

{"columns": ["structure-smiles-string", "viability at 20 h, 1 µM (%)"],
 "data": [
  ["CC[C@H](C)[C@H](NC(=O)[C@H](Cc1c[nH]c2ccccc12)NC(=O)[C@H](CCCCN)NC(=O)[C@H](CCCCN)NC(=O)[C@H](CC(C)C)NC(=O)[C@H](CCCNC(=N)N)NC(=O)[C@H](Cc1ccccc1)NC(=O)[C@@H](NC(=O)[C@@H](N)Cc1c[nH]cn1)C(C)C)C(=O)N[C@@]1(C)CCCC=CCCC[C@@](C)(C(=O)N[C@@H](CCC(N)=O)C(=O)N[C@@H](Cc2ccccc2)C(=O)NCC(=O)N[C@@H](CCC(=O)O)C(=O)O)NC(=O)[C@H]([C@@H](C)CC)NC(=O)[C@H](C(C)C)NC(=O)[C@H](CCCCN)NC1=O", 90.5]
]}

* * *

assay: Cell viability of THP1-XBlue-CD14 reporter cells; settings: human, 5 µM peptide, with LPS, replicate 4

{"columns": ["structure-smiles-string", "viability at 20 h, 5 µM, %"],
 "data": [
  ["CC[C@H](C)[C@H](NC(=O)[C@H](Cc1c[nH]c2ccccc12)NC(=O)[C@H](CCCCN)NC(=O)[C@H](CCCCN)NC(=O)[C@H](CC(C)C)NC(=O)[C@H](CCCNC(=N)N)NC(=O)[C@H](Cc1ccccc1)NC(=O)[C@@H](NC(=O)[C@@H](N)Cc1c[nH]cn1)C(C)C)C(=O)N[C@@]1(C)CCCC=CCCC[C@@](C)(C(=O)N[C@@H](CCC(N)=O)C(=O)N[C@@H](Cc2ccccc2)C(=O)NCC(=O)N[C@@H](CCC(=O)O)C(=O)O)NC(=O)[C@H]([C@@H](C)CC)NC(=O)[C@H](C(C)C)NC(=O)[C@H](CCCCN)NC1=O", 95]
]}
